Molecular target: Alpha-2C adrenergic receptor (Homo sapiens, UniProt P18825); also: assay procedure not described here
Sequence (P18825 whole entry): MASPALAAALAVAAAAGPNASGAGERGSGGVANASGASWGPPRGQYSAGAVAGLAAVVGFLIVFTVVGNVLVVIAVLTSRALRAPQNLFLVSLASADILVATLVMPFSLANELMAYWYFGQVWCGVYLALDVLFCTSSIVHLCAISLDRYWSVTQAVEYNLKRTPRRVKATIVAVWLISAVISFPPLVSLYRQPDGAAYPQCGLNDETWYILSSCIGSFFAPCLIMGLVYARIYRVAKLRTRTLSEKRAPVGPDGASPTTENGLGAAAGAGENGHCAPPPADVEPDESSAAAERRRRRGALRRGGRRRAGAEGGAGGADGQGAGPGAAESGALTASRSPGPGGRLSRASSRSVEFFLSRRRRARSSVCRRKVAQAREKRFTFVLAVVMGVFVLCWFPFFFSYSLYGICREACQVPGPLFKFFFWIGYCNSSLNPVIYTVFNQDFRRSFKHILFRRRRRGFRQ
Assay type: functional
Entries and their AC50
Kindly answer with a numeric value in µM, unit omitted.

Some solved cases for reference:
>>> df
                                   compound   u  assay_value
0  CC(/C=C1\SC(=S)N(CC(=O)O)C1=O)=C\c1ccccc1  µM          8.2
1  COc1cccc2c1C(=O)c1c(O)c3c(c(O)c1C2=O)C[C@@](O)(C(C)=O)C[C@@H]3O[C@H]1C[C@H](N)[C@H](O)[C@H](C)O1  µM         17.5
2      CCCN(CCc1cccs1)[C@H]1CCc2c(O)cccc2C1  µM          0.4

Note: attention shifts to another entry.
Sure, the documented AC50 for CC(CCc1ccccc1)NC(C)C(O)c1ccc(O)cc1 (centres undefined) is 0.64

====

Biological target: Histamine H1 receptor (Homo sapiens, UniProt P35367); also: assay procedure not described here
Sequence (P35367 whole entry): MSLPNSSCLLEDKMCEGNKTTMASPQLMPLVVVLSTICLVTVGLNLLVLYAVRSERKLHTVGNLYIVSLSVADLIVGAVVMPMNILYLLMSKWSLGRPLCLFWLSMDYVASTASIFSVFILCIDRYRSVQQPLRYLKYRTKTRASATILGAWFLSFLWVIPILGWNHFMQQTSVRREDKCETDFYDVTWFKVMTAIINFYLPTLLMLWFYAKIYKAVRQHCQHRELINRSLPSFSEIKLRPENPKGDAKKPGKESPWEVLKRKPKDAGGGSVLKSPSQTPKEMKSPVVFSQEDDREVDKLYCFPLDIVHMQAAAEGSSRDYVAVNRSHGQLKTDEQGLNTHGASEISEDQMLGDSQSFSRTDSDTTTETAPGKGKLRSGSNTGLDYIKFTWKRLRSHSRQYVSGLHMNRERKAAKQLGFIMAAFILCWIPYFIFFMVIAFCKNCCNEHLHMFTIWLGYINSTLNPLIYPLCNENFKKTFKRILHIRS
REPORTED_METRIC: AC50

Some solved cases for reference:
COMPOUND	ASSAY_TARGET	AC50
CC1(C)O[C@@H]2[C@@H](CO[C@@]3(COS(N)(=O)=O)OC(C)(C)O[C@@H]23)O1 [TOPIRAMATE]	Histamine H1 receptor (Homo sapiens, UniProt P35367)	> 10 µM
CC(=O)O[C@H]1C[C@@H]2CC[C@@H]3[C@H](CC[C@@]4(C)[C@H]3C[C@H]([N+]3(C)CCCCC3)[C@@H]4OC(C)=O)[C@@]2(C)C[C@@H]1[N+]1(C)CCCCC1	Histamine H1 receptor (Homo sapiens, UniProt P35367)	> 10 µM
CCCCCCOC(=O)CCC(=O)CN [HEXAMINOLEVULINATE]	Histamine H1 receptor (Homo sapiens, UniProt P35367)	> 30 µM
CCOC(=O)NNc1ccc(N(CC)CC(C)O)nn1 (stereo unspecified)	Histamine H1 receptor (Homo sapiens, UniProt P35367)	> 30 µM
CC(=O)c1ccc2c(c1)N(CCCN1CCC(CCO)CC1)c1ccccc1S2	Histamine H1 receptor (Homo sapiens, UniProt P35367)	0.034 µM

Entry C=C(C)[C@@H]1CCC(C)=C[C@H]1c1c(O)cc(CCCCC)cc1O : AC50 on Histamine H1 receptor (Homo sapiens, UniProt P35367) = > 30 µM

Entry CC(=O)Nc1c(I)c(C(=O)N[C@H]2C(O)O[C@H](CO)[C@@H](O)[C@@H]2O)c(I)c(N(C)C(C)=O)c1I (stereo partly specified) [METRIZAMIDE] : AC50 on Histamine H1 receptor (Homo sapiens, UniProt P35367) = > 10 µM

Entry N[C@H](Cc1cc(I)c(Oc2cc(I)c(O)c(I)c2)c(I)c1)C(=O)O : AC50 on Histamine H1 receptor (Homo sapiens, UniProt P35367) = > 10 µM

====

Molecular target: UniProt:P37288
Sequence (P37288 whole entry): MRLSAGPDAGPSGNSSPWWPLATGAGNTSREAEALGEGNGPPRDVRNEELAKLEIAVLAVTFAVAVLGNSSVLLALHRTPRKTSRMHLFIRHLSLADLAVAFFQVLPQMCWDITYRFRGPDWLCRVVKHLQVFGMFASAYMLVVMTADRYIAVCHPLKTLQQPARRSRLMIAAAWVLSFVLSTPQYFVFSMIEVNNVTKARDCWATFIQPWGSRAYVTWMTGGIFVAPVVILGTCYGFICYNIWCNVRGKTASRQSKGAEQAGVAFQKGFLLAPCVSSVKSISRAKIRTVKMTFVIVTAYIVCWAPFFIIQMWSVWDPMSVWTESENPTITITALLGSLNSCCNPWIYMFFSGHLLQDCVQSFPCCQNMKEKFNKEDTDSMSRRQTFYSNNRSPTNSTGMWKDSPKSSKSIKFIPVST
Entries and their AC50

MOLECULE	ASSAY_TARGET	AC50
N=C(N)c1ccc2cc(OC(=O)c3ccc(N=C(N)N)cc3)ccc2c1	UniProt:P37288	> 30 µM

Entry CCCN(CCc1cccs1)[C@H]1CCc2c(O)cccc2C1 : AC50 on UniProt:P37288 = > 30 µM

Entry O=C(Nc1c(Cl)cncc1Cl)c1ccc(OC(F)F)c(OCC2CC2)c1 : AC50 on UniProt:P37288 = > 30 µM
